target: CDK4/Cyclin D1 complex (UniProt P11802 1-303; P24385 1-295); test: cell-based or functional assay
Sequence (P11802 other isoform, or with tags, fused parts or gaps, chain 1 of 2): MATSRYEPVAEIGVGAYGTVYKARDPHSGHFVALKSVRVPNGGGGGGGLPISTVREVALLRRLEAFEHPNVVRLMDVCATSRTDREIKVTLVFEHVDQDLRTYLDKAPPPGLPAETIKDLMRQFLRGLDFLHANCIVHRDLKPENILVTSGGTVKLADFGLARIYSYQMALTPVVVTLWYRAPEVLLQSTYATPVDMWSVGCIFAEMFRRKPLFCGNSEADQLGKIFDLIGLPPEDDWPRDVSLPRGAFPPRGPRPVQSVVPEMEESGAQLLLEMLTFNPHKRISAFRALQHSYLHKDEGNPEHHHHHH
Sequence (P24385 whole entry, chain 2 of 2): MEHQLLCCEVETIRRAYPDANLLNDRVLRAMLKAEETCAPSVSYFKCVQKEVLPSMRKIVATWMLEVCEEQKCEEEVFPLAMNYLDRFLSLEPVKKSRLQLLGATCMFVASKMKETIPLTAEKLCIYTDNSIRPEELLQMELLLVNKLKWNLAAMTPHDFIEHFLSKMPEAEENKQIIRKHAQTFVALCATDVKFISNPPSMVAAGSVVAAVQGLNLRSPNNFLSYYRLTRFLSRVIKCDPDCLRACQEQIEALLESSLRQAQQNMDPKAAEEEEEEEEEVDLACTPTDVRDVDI
Ends that are not written are not given here.
Threshold rule: % Inhibition, cyclin D1/CDK4 kinase greater than or equal to 60% is YES; below that, NO.

binder="KRRLIFSK-NH2 [KRRLIFSK-NH2]" group=NO
binder="FYHSKRRLI-NH2 [FYHSKRRLI-NH2]" group=NO
binder="DFYHSKRR-NH2 [DFYHSKRR-NH2]" group=NO
binder="SMTDFYHSKRRL-NH2 [SMTDFYHSKRRL-NH2]" group=NO
binder="H-KRRLIF-NH2 [H-Lys-Arg-Arg-Leu-Ile-Phe-NH2]" group=YES
binder="HSKRRLIFS-NH2 [HSKRRLIFS-NH2]" group=YES
binder="DFYHSARRLIFS-NH2 [DFYHSARRLIFS-NH2]" group=NO
binder="FYHSKRRLIFS-NH2 [FYHSKRRLIFS-NH2]" group=YES
binder="FYHSKRRL-NH2 [FYHSKRRL-NH2]" group=NO
binder="FYHSKRRLIF-NH2 [p21 (150-159) FYHSKRRLIF-NH2]" group=YES
binder="FYHSKRR-NH2 [FYHSKRR-NH2]" group=NO
binder="DFYHSKRRLI-NH2 [DFYHSKRRLI-NH2]" group=NO
binder="HSKRRLIFSKRK-NH2 [HSKRRLIFSKRK-NH2]" group=YES
